Tested on: C. auris strain AR Bank #390 (L)
test_name: MIC determination by in vitro antifungal assay
Type: cell-based, Candida auris
experimental_setup: C. auris AR Bank #390 (L)
Assign log10 MIC to each entry below.
Note: values are log10 of MIC expressed in μg/mL^−1.

Test system C. auris strain AR Bank #390 (L); read-out log10 MIC; what value for COc1cccc(NNC(=O)c2ccccn2)c1 [Compound 2c] ?
-0.01

Now consider C[C@@H]1[C@H](O)[C@@H](C)/C=C/C=C/C=C/C=C/C=C/C=C/C=C/[C@H](O[C@@H]2O[C@H](C)[C@@H](O)[C@H](N)[C@@H]2O)C[C@@H]2O[C@](O)(C[C@@H](O)C[C@@H](O)[C@H](O)CC[C@@H](O)C[C@@H](O)CC(=O)O[C@H]1C)C[C@H](O)[C@H]2C(=O)O [AmB, amphotericin B, reference compound] .
0.29

Here is the next molecule: O=C(NNc1cccc(Cl)c1)c1ccccn1 [Compound 2b]
-0.31

Then this molecule: O=C(NNc1cccc(F)c1)c1ccccn1 [Compound 2a]
-0.62

Note, next up: O=C(NNc1ccc(Cl)cc1)c1cnccn1 [Compound 9e]
0.59

Could you do the same for O=C(NNc1ccc(Cl)cc1)c1ccccn1 [Compound 2e] , please?
0.29
